// provenance: the supplement of paper PMC6897291

Test system: RIVA
protocol: growth inhibition by drug plus 177Lu-lilotomab satetraxetan (1 - RLU/untreated control) (fraction); higher = stronger inhibition
measurement_setup: 10 nM; time (day): 5; 177Lu-lilotomab satetraxetan 0.5 ug/ml
Structures can show the parent of a compound that is named as a salt.
measurement_kind: growth inhibition by drug plus 177Lu-lilotomab satetraxetan

[
  {
    "molecule": "COc1ccc2c(c1)CCC1C2CCC2(C)C(NCCCCCCN3C(=O)C=CC3=O)CCC12 (stereo not given)",
    "result": 0.586
  },
  {
    "molecule": "O=C(O)C(Cc1c[nH]c2ccccc12)N1C(=O)c2ccccc2C1=O (stereo not given)",
    "result": 0.475
  },
  {
    "molecule": "C=CCc1cccc(/C=N/NC(=O)CN2CCN(Cc3ccccc3)CC2)c1O",
    "result": 0.666
  },
  {
    "molecule": "CCC(CC)CC1(C(=O)Nc2ccccc2SC(=O)C(C)C)CCCCC1",
    "result": 0.564
  },
  {
    "molecule": "CC/C(=C(\\c1ccccc1)c1ccc(OCCN(C)C)cc1)c1ccccc1 [Tamoxifen Citrate (Nolvadex)]",
    "result": 0.667
  }
]

---

Items are presented alongside their recorded growth inhibition by drug plus 177Lu-lilotomab satetraxetan.
System: U-2932
protocol: growth inhibition by drug plus 177Lu-lilotomab satetraxetan (1 - RLU/untreated control) (fraction); higher = stronger inhibition
measurement_setup: 1000 nM; time (day): 3; 177Lu-lilotomab satetraxetan 1 ug/ml
Where a name gives a salt, the structure may show the parent alone.
measurement_kind: growth inhibition by drug plus 177Lu-lilotomab satetraxetan

[
  {
    "compound": "CNC(=O)c1cc(Oc2ccc(NC(=O)Nc3cc(C(C)(C)C)nn3-c3ccc4ncccc4c3)c(F)c2)ccn1 [DCC-2036 (Rebastinib)]",
    "result": 0.0878
  },
  {
    "compound": "C[C@@H](N)[C@H]1CC[C@H](C(=O)Nc2ccncc2)CC1",
    "result": -0.014
  },
  {
    "compound": "CCCCCOC(=O)Nc1nc(=O)n([C@@H]2O[C@H](C)[C@@H](O)[C@H]2O)cc1F",
    "result": -0.139
  },
  {
    "compound": "COCC[n+]1c2c(n(Cc3cnccn3)c1C)C(=O)c1ccccc1C2=O",
    "result": 0.988
  },
  {
    "compound": "COc1ccc(C2=N[C@@H](c3ccc(Cl)cc3)[C@@H](c3ccc(Cl)cc3)N2C(=O)N2CCNC(=O)C2)c(OC(C)C)c1",
    "result": -0.00272
  },
  {
    "compound": "COC1=CC(c2cc3ccccc3[nH]2)=N/C1=C\\c1[nH]c(C)cc1C [Obatoclax mesylate (GX15-070)]",
    "result": 0.143
  },
  {
    "compound": "Nc1ccc(C(=O)Nc2cccc(-c3nc(N4CCOCC4)c4oc5ncccc5c4n3)c2)cn1",
    "result": 0.163
  },
  {
    "compound": "COc1ccc(-c2ccc3c(N4CCOC[C@@H]4C)nc(N4CCOC[C@@H]4C)nc3n2)cc1CO",
    "result": 0.899
  },
  {
    "compound": "CN(Cc1cnc2nc(N)nc(N)c2n1)c1ccc(C(=O)N[C@@H](CCC(=O)O)C(=O)O)cc1 [Abitrexate (Methotrexate)]",
    "result": 0.851
  },
  {
    "compound": "O=C(O)c1ccc(-c2c[nH]c3ncc(-c4ccccc4)cc23)cc1C1CCCC1",
    "result": 0.129
  },
  {
    "compound": "CNC(=O)c1cc(COc2nnc(Nc3ccc(Cl)cc3)c3ccoc23)ccn1",
    "result": -0.145
  },
  {
    "compound": "COC(=O)Nc1nc2cc(C(=O)c3cccs3)ccc2[nH]1",
    "result": 0.971
  },
  {
    "compound": "COc1cc2nccc(Oc3ccc(NC(=O)C4(C(=O)Nc5ccc(F)cc5)CC4)cc3)c2cc1OC [XL-184 free base (Cabozantinib)]",
    "result": 0.112
  },
  {
    "compound": "Cc1cc(Nc2cc(N3CCN(C)CC3)nc(Sc3ccc(NC(=O)C4CC4)cc3)n2)n[nH]1",
    "result": 0.272
  },
  {
    "compound": "O=C1C(Cl)=C(NCCN2CCOCC2)C(=O)c2ncccc21",
    "result": 0.201
  },
  {
    "compound": "CC#C[C@]1(O)CC[C@H]2[C@@H]3CCC4=CC(=O)CCC4=C3[C@@H](c3ccc(N(C)C)cc3)C[C@@]21C",
    "result": -0.0642
  }
]

---

Tested on: RIVA
protocol: growth inhibition by drug alone (1 - RLU/untreated control) (fraction); higher = stronger inhibition
measurement_setup: 100 nM; time (day): 6; 177Lu-lilotomab satetraxetan 0 ug/ml
Structures can show the parent of a compound that is named as a salt.

[
  {
    "compound": "C[S+]([O-])c1ccc(-c2nc(-c3ccc(F)cc3)c(-c3ccncc3)[nH]2)cc1 (centres undefined)",
    "growth inhibition by drug alone": -0.227
  },
  {
    "compound": "Cn1cnc(N)c2ncnc1-2",
    "growth inhibition by drug alone": -0.338
  },
  {
    "compound": "Nc1ncn([C@H]2C[C@H](O)[C@@H](CO)O2)c(=O)n1",
    "growth inhibition by drug alone": -0.0694
  },
  {
    "compound": "N#Cc1ccc(COC[C@H]2O[C@@H](n3c(NCc4ccc(Cl)c(Cl)c4)nc4c(N)ncnc43)[C@H](O)[C@@H]2O)cc1",
    "growth inhibition by drug alone": -0.395
  },
  {
    "compound": "CC[C@@]1(O)C(=O)OCc2c1cc1n(c2=O)Cc2cc3c(CN(C)C)c(O)ccc3nc2-1 [Topotecan HCl]",
    "growth inhibition by drug alone": 0.882
  },
  {
    "compound": "O=C(Nc1ncc([N+](=O)[O-])s1)c1ccc([N+](=O)[O-])c(Cl)c1",
    "growth inhibition by drug alone": -0.14
  },
  {
    "compound": "O=C(O)C(=O)O.[NH-]C1CCCCC1[NH-].[Pt+2] (centres undefined) [Oxaliplatin (Eloxatin)]",
    "growth inhibition by drug alone": -0.155
  },
  {
    "compound": "Clc1ccc(Nc2nnc(Cc3ccncc3)c3ccccc23)cc1 [Vatalanib dihydrochloride (PTK787)]",
    "growth inhibition by drug alone": -0.165
  },
  {
    "compound": "CN(C)CCCN=c1c2ccccc2n(C)c2[nH]c(=O)n(C)c(=O)c12",
    "growth inhibition by drug alone": -0.137
  },
  {
    "compound": "CC(C)OC(=O)C1=CN(C(=O)c2ccc(F)c(F)c2)CC(C)(C)c2c1[nH]c1ccccc21",
    "growth inhibition by drug alone": -0.234
  },
  {
    "compound": "CCCC(=O)[O-].[Na+] [Sodium butyrate]",
    "growth inhibition by drug alone": -0.374
  },
  {
    "compound": "C#Cc1cccc(Nc2ncnc3cc(OCCOC)c(OCCOC)cc23)c1 [Erlotinib HCl]",
    "growth inhibition by drug alone": 0.46
  },
  {
    "compound": "O=C(c1cc(Cc2n[nH]c(=O)c3ccccc23)ccc1F)N1CCN(C(=O)C2CC2)CC1",
    "growth inhibition by drug alone": -0.231
  },
  {
    "compound": "CC[C@]1(O)C[C@H]2CN(CCc3c([nH]c4ccccc34)[C@@](C(=O)OC)(c3cc4c(cc3OC)N(C=O)[C@H]3[C@@](O)(C(=O)OC)[C@H](OC(C)=O)[C@]5(CC)C=CCN6CC[C@]43[C@@H]65)C2)C1",
    "growth inhibition by drug alone": 0.967
  },
  {
    "compound": "Cc1cnc(NC(=O)Nc2cc(Br)c(C)cc2OC[C@@H]2CNCCO2)cn1",
    "growth inhibition by drug alone": -0.0919
  },
  {
    "compound": "OCCn1cc(-c2ccc3c(c2)CC/C3=N\\O)c(-c2ccncc2)n1",
    "growth inhibition by drug alone": -0.236
  },
  {
    "compound": "O=c1[nH]cc(F)c(=O)[nH]1",
    "growth inhibition by drug alone": -0.619
  },
  {
    "compound": "O=C1c2c(O)ccc(O)c2C(=O)c2c(NCCNCCO)ccc(NCCNCCO)c21 [Mitoxantrone Hydrochloride]",
    "growth inhibition by drug alone": 0.904
  },
  {
    "compound": "Oc1nc(-c2ccc(C(F)(F)F)cc2)nc2c1CSCC2",
    "growth inhibition by drug alone": -0.199
  },
  {
    "compound": "CCCC(CCC)C(=O)O [Valproic acid sodium salt (Sodium valproate)]",
    "growth inhibition by drug alone": -0.0995
  },
  {
    "compound": "COC(=O)Nc1ccc(-c2nc(N3CCOCC3)c3cnn(C4CCN(C(=O)OC)CC4)c3n2)cc1",
    "growth inhibition by drug alone": 0.00434
  },
  {
    "compound": "C=C1/C(=C\\C=C2/CCC[C@]3(C)[C@@H]([C@H](C)/C=C/[C@H](C)C(C)C)CC[C@@H]23)C[C@@H](O)C[C@@H]1O",
    "growth inhibition by drug alone": 0.0636
  },
  {
    "compound": "COc1cc([C@@H]2c3cc4c(cc3[C@@H](O[C@@H]3O[C@@H]5CO[C@@H](C)O[C@H]5[C@H](O)[C@H]3O)[C@H]3COC(=O)[C@H]23)OCO4)cc(OC)c1O [Etoposide (VP-16)]",
    "growth inhibition by drug alone": 0.202
  },
  {
    "compound": "Cc1nn(-c2ccccc2)c(C)c1C=NN1CCN(Cc2ccccc2)CC1",
    "growth inhibition by drug alone": -0.307
  },
  {
    "compound": "Cc1cnc(Nc2ccc(OCCN3CCCC3)cc2)nc1Nc1cccc(S(=O)(=O)NC(C)(C)C)c1",
    "growth inhibition by drug alone": -0.775
  },
  {
    "compound": "CN[C@@H](C)C(=O)N[C@H]1CN(C(=O)CC(C)C)CC[C@H]2CC[C@@H](C(=O)NC(c3ccccc3)c3ccccc3)N2C1=O",
    "growth inhibition by drug alone": -0.406
  },
  {
    "compound": "C=CC(=O)N1CCC[C@@H](n2nc(-c3ccc(Oc4ccccc4)cc3)c3c(N)ncnc32)C1",
    "growth inhibition by drug alone": 0.923
  },
  {
    "compound": "COCC[n+]1c2c(n(Cc3cnccn3)c1C)C(=O)c1ccccc1C2=O",
    "growth inhibition by drug alone": 0.979
  },
  {
    "compound": "CC(C)(C)c1cnc(CSc2cnc(NC(=O)C3CCNCC3)s2)o1",
    "growth inhibition by drug alone": -0.723
  },
  {
    "compound": "CC(=O)[C@]1(O)Cc2c(O)c3c(c(O)c2[C@@H](O[C@H]2C[C@H](N)[C@H](O)[C@H](C)O2)C1)C(=O)c1ccccc1C3=O [Idarubicin HCl]",
    "growth inhibition by drug alone": 0.883
  },
  {
    "compound": "OCCn1cc(-c2cnc3nnn(Cc4ccc5ncccc5c4)c3n2)cn1",
    "growth inhibition by drug alone": -0.402
  },
  {
    "compound": "Cc1cn(-c2cc(NC(=O)c3ccc(C)c(Nc4nccc(-c5cccnc5)n4)c3)cc(C(F)(F)F)c2)cn1",
    "growth inhibition by drug alone": -0.17
  },
  {
    "compound": "COc1ccc2c3n(c(=NC(=O)c4cccnc4)nc2c1OC)CCN3",
    "growth inhibition by drug alone": -0.048
  },
  {
    "compound": "Oc1cccc(-c2nc(N3CCOCC3)c3oc4ncccc4c3n2)c1",
    "growth inhibition by drug alone": 0.585
  }
]
